test: cytotoxicity against mammalian host cells; type: cell-based; details: rat, rat skeletal myoblast L6 cells
attribute-measured: IC50 (nM)

>  <structure-notation>
COc1cc([C@@H]2c3cc4c(cc3[C@H](O)[C@H]3COC(=O)[C@H]23)OCO4)cc(OC)c1OC

>  <attribute-measured>
IC50

>  <value-reported>
9.6

$$$$
